All values here come from ChEMBL document CHEMBL1139781.

IC50 listing for selected compounds.
measurement.target: Insulin-like growth factor 1 receptor (Homo sapiens)
Sequence (P08069 31-736 limits assumed): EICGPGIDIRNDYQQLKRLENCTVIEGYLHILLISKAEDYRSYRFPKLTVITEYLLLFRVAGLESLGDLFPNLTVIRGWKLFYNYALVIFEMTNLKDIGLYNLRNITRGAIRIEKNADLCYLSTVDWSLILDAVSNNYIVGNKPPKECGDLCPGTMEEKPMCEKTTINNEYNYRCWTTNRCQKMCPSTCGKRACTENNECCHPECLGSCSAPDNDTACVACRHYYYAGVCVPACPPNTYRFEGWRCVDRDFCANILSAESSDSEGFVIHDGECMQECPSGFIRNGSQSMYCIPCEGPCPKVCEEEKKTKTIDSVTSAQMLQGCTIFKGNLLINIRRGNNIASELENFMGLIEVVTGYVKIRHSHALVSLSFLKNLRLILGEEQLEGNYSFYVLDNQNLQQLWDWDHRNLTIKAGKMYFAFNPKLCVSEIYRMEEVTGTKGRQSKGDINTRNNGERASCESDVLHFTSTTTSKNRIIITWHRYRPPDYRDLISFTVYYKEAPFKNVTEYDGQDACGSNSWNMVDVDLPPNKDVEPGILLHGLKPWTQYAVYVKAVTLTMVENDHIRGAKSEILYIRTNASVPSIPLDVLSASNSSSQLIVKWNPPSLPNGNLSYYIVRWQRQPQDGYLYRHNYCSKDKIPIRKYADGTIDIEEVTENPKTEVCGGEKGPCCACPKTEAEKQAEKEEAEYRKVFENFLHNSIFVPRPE
Sequence (P08069 741-1367 limits assumed): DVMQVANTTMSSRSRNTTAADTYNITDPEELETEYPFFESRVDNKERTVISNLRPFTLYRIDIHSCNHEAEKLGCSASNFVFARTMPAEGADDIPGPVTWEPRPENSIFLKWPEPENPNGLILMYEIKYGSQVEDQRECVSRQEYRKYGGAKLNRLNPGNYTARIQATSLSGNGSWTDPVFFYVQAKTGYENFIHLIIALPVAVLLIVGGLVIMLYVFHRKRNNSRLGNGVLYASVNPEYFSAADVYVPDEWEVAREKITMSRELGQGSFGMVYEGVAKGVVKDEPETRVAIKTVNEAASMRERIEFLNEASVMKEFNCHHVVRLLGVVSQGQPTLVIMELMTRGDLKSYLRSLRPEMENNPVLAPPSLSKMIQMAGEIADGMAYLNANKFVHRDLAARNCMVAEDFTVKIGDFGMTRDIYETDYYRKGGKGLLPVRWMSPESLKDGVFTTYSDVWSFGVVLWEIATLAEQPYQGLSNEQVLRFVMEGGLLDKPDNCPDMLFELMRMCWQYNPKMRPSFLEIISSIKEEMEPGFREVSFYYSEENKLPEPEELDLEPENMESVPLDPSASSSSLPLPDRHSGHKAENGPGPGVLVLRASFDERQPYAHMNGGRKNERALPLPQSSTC
procedure.summary: Inhibition of human IGF1R expressed in Sf21 cells by time-resolved fluorescence assay

compound.string | IC50
Nc1ncnc2c1c(-c1ccc3nc(Cc4ccccc4Cl)[nH]c3c1)nn2[C@H]1CC[C@H](N2CCOCC2)CC1 | 37 nM
Nc1ncnc2c1c(-c1ccc3nc(Cc4cccc(Cl)c4)[nH]c3c1)nn2[C@H]1CC[C@H](N2CCOCC2)CC1 | 123 nM
Nc1ncnc2c1c(-c1ccc3[nH]c(Cc4ccccc4Br)nc3c1)nn2[C@H]1CC[C@H](N2CCOCC2)CC1 | 71 nM
COc1ccccc1Cc1nc2ccc(-c3nn([C@H]4CC[C@H](N5CCOCC5)CC4)c4ncnc(N)c34)cc2[nH]1 | 81 nM
